Assay: Compound was evaluated percentage of Oral bioavailability in dogs
Format: ADME, organism-based, Canis lupus familiaris
Details: dog, in vivo
MEASUREMENT LABEL: bioavailability

Challenge: Determine from records and report bioavailability for CC(C)(N)CC(=O)N[C@@H]1CCc2ccccc2N(Cc2ccc(-c3ccccc3-c3nn[nH]n3)cc2)C1=O
Response given: < 5%

----------
Experiment: Half-life period measured in dogs
Type: ADME, organism-based, Canis lupus familiaris
Details: dog, in vivo
MEASUREMENT LABEL: half-life
Please answer in the form of a number followed by its unit of measurement.

Challenge: Determine from records and report half-life for CC(C)(N)C(=O)N[C@H](COCc1ccccc1)C(=O)N1CCC2(CC1)CN(S(C)(=O)=O)c1ccccc12
Response given: 4.7 h

----------
Assay: Compound was evaluated for percentage of Oral bioavailability in rats
Assay type: ADME, organism-based
Conditions: rat, in vivo, read-out: Bioavailabiility
MEASUREMENT LABEL: bioavailability

Challenge: Determine from records and report bioavailability for CC(C)(N)CC(=O)N[C@@H]1CCc2c(ccc3ccccc23)N(Cc2ccc(-c3ccccc3-c3nn[nH]n3)cc2)C1=O
Response given: < 5%

----------
Species on record: Rattus norvegicus
Experiment: Compound was evaluated for binding affinity, which binds with high affinity to membranes isolated from rat hypothalamus
MEASUREMENT LABEL: pKd
Give bare numbers, as −log10 of the molar value.

Challenge: Determine from records and report pKd for CC(C)(N)C(=O)N[C@H](COCc1ccccc1)C(=O)N1CCC2(CC1)CN(S(C)(=O)=O)c1ccccc12
Response given: 9.77

----------
Organism: Rattus norvegicus
Test: compound was evaluated for GH release in the rat pituitary cell culture assay
Format: functional
Settings: Pituitary gland cell
MEASUREMENT LABEL: pIC50
One number for each entry, as −log10 of the molar value.

Challenge: Determine from records and report pIC50 for O=C(NC(Cc1c[nH]c2ccccc12)C(=O)N1CCC2(CCc3ccccc32)CC1)NC1CN2CCC1CC2 (stereo unspecified)
Response given: 7.30

----------
Assay: Compound was evaluated for half-life in humans
Format: ADME, organism-based
Conditions: human, in vivo
Where a SMILES comes first, the peptide text is derived from it. [ ]: non-standard residue; d: D form.
MEASUREMENT LABEL: half-life (min)
Give bare numbers, in min.

Challenge: Determine from records and report half-life for C[C@H](NC(=O)[C@@H](Cc1c[nH]c2ccccc12)NC(=O)[C@@H](N)Cc1c[nH]cn1)C(=O)N[C@@H](Cc1c[nH]c2ccccc12)C(=O)N[C@H](Cc1ccccc1)C(=O)N[C@@H](CCCCN)C(N)=O (H-H[dW]AW[dF]K-NH2)
Response given: 20

----------
Target: UniProtKB P30559
Sequence (P30559 whole entry): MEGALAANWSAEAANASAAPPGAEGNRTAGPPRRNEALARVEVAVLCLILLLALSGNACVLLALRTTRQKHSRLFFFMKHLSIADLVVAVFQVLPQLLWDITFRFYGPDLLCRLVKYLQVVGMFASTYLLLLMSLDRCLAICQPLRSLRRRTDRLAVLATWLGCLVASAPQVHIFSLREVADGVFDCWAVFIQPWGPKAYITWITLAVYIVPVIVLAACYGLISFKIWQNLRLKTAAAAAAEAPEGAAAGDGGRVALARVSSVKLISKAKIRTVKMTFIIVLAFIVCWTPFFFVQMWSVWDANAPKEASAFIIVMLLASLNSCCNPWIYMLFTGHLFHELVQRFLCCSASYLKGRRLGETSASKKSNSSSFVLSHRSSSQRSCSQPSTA
Test: Antagonistic activity against Oxytocin receptor
MEASUREMENT LABEL: IC50 (nM)
Give bare numbers, in nM.

{"COMPOUND": "CC1(C)C2CCC1(CS(=O)(=O)N1CCC3(CCc4ccccc43)CC1)C(NC(=O)C1CCCNC1)C2 (configuration not stated)", "UNITS TEXT": "nM", "IC50": 68}

Kindly consider the entry below.
Challenge: Determine from records and report IC50 for C[C@@H](O)CN1CCC[C@@H](C(=O)NC2CC3CCC2(CS(=O)(=O)N2CCC4(CCc5ccccc54)CC2)C3(C)C)C1 (some centres not stated)
Response given: 130

----------
Molecular target: Growth hormone secretagogue receptor type 1 (Homo sapiens)
Sequence (Q92847 whole entry): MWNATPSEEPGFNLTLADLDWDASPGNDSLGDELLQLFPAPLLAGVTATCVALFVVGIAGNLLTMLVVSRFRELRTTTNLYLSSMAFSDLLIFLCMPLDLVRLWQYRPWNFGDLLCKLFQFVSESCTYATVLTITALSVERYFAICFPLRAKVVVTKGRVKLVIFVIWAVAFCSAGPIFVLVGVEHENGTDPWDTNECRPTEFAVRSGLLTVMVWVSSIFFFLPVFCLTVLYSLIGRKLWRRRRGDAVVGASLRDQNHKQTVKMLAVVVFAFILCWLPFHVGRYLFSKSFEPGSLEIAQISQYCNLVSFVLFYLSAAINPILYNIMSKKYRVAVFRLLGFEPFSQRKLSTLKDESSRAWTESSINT
Experiment: Inhibitory concentration (biotinylated probe) is evaluated for [35S]- MK-0677 binding
MEASUREMENT LABEL: pIC50
Answers are plain numbers, as −log10 of the molar value.

Challenge: Determine from records and report pIC50 for CC(C)(N)C(=O)N[C@H](COCc1ccccc1)C(=O)N1CCC2(CC1)CN(S(=O)(=O)CC(=O)NCCCCCCNC(=O)CCCC[C@@H]1SCC3NC(=O)NC31)c1ccccc12 (stereo partly specified)
Response given: 9.70
